Molecular target: EGFR d746-750/T790M (Homo sapiens, UniProt P00533, DEL746-750/T790M)
Sequence (P00533 with tags, fused parts or gaps DEL746-750/T790M limits assumed): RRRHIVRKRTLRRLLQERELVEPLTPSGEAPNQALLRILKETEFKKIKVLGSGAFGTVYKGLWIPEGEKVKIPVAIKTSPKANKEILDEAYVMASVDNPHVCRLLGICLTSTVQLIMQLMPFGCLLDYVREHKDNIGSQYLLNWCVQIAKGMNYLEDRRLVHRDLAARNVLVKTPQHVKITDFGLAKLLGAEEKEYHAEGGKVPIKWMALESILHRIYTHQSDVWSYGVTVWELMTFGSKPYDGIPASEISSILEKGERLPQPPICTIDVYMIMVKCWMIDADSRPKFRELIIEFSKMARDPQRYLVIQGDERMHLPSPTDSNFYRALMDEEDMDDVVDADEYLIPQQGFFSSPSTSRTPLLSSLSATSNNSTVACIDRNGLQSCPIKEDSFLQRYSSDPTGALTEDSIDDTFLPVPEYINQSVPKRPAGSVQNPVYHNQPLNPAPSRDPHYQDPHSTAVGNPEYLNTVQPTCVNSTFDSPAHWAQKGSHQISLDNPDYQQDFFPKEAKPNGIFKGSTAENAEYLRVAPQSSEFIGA
Assay: EGFR d746-750/T790M enzyme HTRF inhibition assay
Conditions: 40 μM ATP
observed property: IC50 (nM)

Examples with answers:
{"compound": "C=CC(=O)Nc1cc(Nc2ncc(F)c(-c3c4n(c5ccccc35)CCOC4)n2)c(OC)cc1N(C)CC(C)(C)N(C)C", "experimental value": 0.2}
{"compound": "C=CC(=O)Nc1cc(Nc2nccc(-c3c4n(c5ccccc35)CCC4)n2)c(OC)cc1N1CC(N(C)C)C1", "experimental value": 0.67}
{"compound": "C=CC(=O)Nc1cc(Nc2nccc(-c3cn4c5c(cccc35)OCC(C)(C)C4)n2)c(OC)cc1N(C)CCN(C)C", "experimental value": 2.6}
{"compound": "C=CC(=O)Nc1cc(Nc2nccc(-c3c4n(c5ccccc35)CCC4)n2)c(OC)cc1N1CCC(N(C)C)C1 (stereo not drawn)", "experimental value": 3.29}

a. C=CC(=O)Nc1cc(Nc2nccc(-c3c4n(c5ccc(F)cc35)CCOC4)n2)c(OC)cc1N(C)CCN(C)C
b. C=CC(=O)Nc1cc(Nc2nccc(-c3c4n(c5ccccc35)CCOC4)n2)c(OC)cc1N(C)CCNC
Prompt: # returns the entry with the larger IC50; inputs a and b Provide the label of your selected option as the answer.
Completion: b
